target: NEP (Homo sapiens (Human)); assay: Assay 1: in vitro enzyme inhibition assay at human NEP (fluorogenic peptide substrate); type: biochemical; details: pKi values at human NEP, comparative examples, exact values
PROPERTY_LABEL: Ki (nM)
The reply should contain only the number, in nM.

// below: answered molecules
Input line: If you can, please state the reported Ki value of O=C(O)CC(=O)N[C@H](Cc1ccc(-c2ccccc2)cc1)C[C@@H](CO)C(=O)O [Comparative Compound F] .
Output line: 6.31

Input line: Please report the recorded Ki for O=C(O)CCCC(=O)N[C@H](Cc1ccc(-c2ccccc2)cc1)CC(O)C(=O)O (stereo partly shown) [Comparative Compound E] .
Output line: 50.1

Input line: Query: Ki; subject: O=C(O)CCC(=O)N[C@H](Cc1ccc(-c2cccc(Cl)c2)cc1)C[C@@H](O)C(=O)O [Comparative Compound J]
Output line: 0.316

Others:
Input line: Can you look up the measured Ki of O=C(O)C(=O)N[C@H](Cc1ccc(-c2cccc(Cl)c2)cc1)C[C@@H](O)C(=O)O [Example 2A] for me?
Output line: 0.2

Input line: Which measured Ki value corresponds to O=C(O)C(=O)N[C@H](Cc1ccc(-c2ccccc2)cc1)CC(O)C(=O)O (stereo partly shown) [Example 1] ?
Output line: 12.6

Input line: Report Ki for O=C(O)CC(=O)N[C@H](Cc1ccc(-c2ccccc2)cc1)CC(O)C(=O)O (stereo partly shown) [Comparative Compound C] please.
Output line: 200

Input line: I have this molecule here, O=C(O)CC(=O)N[C@H](Cc1ccc(-c2cccc(Cl)c2)cc1)C[C@@H](O)C(=O)O [Comparative Compound I] , and I need its recorded Ki.
Output line: 3.98

====

target: NEP (Homo sapiens (Human)); test: Assay 1: in vitro enzyme inhibition assay at human NEP (fluorogenic peptide substrate); format: biochemical; conditions: pKi values at human NEP, comparative examples, exact values
PROPERTY_LABEL: Ki (nM)
Just the number in nM, nothing appended.

Recorded results for 3 compounds are shown here.
Input line: Requested read-out: Ki. Entry: O=C(O)CCC(=O)N[C@H](Cc1ccc(-c2ccccc2)cc1)CC(O)C(=O)O (stereo partly shown)
Output line: 39.8

Input line: I am curious: what Ki value has been reported for O=C(O)CCC(=O)N[C@H](Cc1ccc(-c2ccccc2)cc1)C[C@@H](CO)C(=O)O ?
Output line: 1

Input line: I am curious: what Ki value has been reported for O=C(O)CCCC(=O)N[C@H](Cc1ccc(-c2ccccc2)cc1)C[C@@H](CO)C(=O)O ?
Output line: 2.51

Next item in the queue.
Input line: Which Ki value belongs to O=C(O)CCCC(=O)N[C@H](Cc1ccc(-c2cccc(Cl)c2)cc1)C[C@@H](O)C(=O)O ?
Output line: 0.501

====

biological target: NEP (Homo sapiens (Human), UniProt P08473); assay: Assay 1: in vitro enzyme inhibition assay at human NEP (fluorogenic peptide substrate); format: biochemical; conditions: pKi values at human NEP, reported as ranges
# Ki annotations

Please review the following examples before continuing.
Input line: Consider the compound shown here: CC(C)COC(=O)C(=O)N[C@H](Cc1ccc(-c2cc(Cl)ccc2Cl)cc1)C[C@@H](O)C(=O)O [Example 3D] What is its recorded Ki?
Output line: ≤ 1 nM

Input line: Which Ki is reported for this compound? O=C(O)C(=O)NN(Cc1ccc(-c2cc(Cl)ccc2F)cc1)C[C@@H](O)C(=O)O [Example 14A]
Output line: ≤ 1 nM

Input line: What does the data say about its Ki? Entry: O=C(O)C(=O)N[C@H](Cc1ccc(-c2ccccc2F)cc1)C[C@@H](CO)C(=O)O [Example 7B]
Output line: ≤ 1 nM

Let us move to another entry and its Ki.
Input line: Give the measured Ki of CC(C)COC(=O)C(=O)NN(Cc1ccc(-c2cc(Cl)ccc2F)cc1)C[C@@H](O)C(=O)O [Example 14C] .
Output line: 1.26 to 10 nM
